Values were extracted from the supplement of paper PMC4466140.

Assay system: CaAbp1-D1
Protocol notes: SPOT peptide array binding signal intensity (averaged, normalized) (arbitrary units (background-subtracted, floor 0; scale differs between SH3 domains)); higher = stronger binding of the SH3 domain to the peptide
Reported endpoint: SPOT peptide array binding signal intensity

Below: 2 binders and their reported SPOT peptide array binding signal intensity.
NAGIRPKFILALNDE | ≤ 0
PSRRDSLSIPRAVDA | ≤ 0

Moving on to another binder below.
Incoming: Input "NSVPIMPTLPPRPYI" , output reported SPOT peptide array binding signal intensity.
Outgoing: ≤ 0
